Biological target: Caspase-4 (Homo sapiens)
Construct: mixing the compounds with the respective active caspases; purchased BioVision K154-100
Sequence (P49662 81-270 limits assumed): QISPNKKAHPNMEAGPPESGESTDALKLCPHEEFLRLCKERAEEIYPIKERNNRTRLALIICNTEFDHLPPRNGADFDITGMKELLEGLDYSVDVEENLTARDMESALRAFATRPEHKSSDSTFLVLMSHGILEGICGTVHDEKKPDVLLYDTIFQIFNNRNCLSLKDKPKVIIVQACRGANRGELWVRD
Sequence (P49662 290-377 limits assumed): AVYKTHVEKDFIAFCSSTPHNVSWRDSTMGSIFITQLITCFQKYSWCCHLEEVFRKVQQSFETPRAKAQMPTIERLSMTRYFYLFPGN
Test: Caspase-4 inhibitor screening assay (BioVision kit, LEVD-AFC)
Format: biochemical
Conditions: read-out: IC50 Casp4
pIC50: −log10 of the molar value. Structures can show the parent of a compound that is named as a salt.
Record 1 whenever pIC50 is at 6 or higher; record 0 when lower.

### Prompt Textbook exercise: given the entry CC(C)[C@H](NC(=O)[C@H](Cc1cn(C)c2ccccc12)NC(=O)[C@H](CC(=O)O)NC(=O)OCc1ccccc1)C(=O)N[C@H](/C=C/S(C)(=O)=O)CC(=O)O [Compound 36] , state whether its pIC50 is greater than or equal to 6.
### Response 0

### Prompt Textbook exercise: given the entry CC(C)(C)[C@H](NC(=O)[C@H](CC(=O)O)NC(=O)OCc1ccccc1)C(=O)N1CCCC1C(=O)N[C@H](/C=C/S(C)(=O)=O)CC(=O)O (stereo in doubt) [Compound 26, Z-Asp-t-Leu-Pro-Asp-methyl vinyl sulfone] , state whether its pIC50 is greater than or equal to 6.
### Response 0

### Prompt Textbook exercise: given the entry CS(=O)(=O)/C=C/[C@H](CC(=O)O)NC(=O)[C@H]1CCCN1C(=O)[C@@H](NC(=O)[C@H](CC(=O)O)NC(=O)OCc1ccccc1)c1ccccc1 [Compound 30] , state whether its pIC50 is greater than or equal to 6.
### Response 0

### Prompt Textbook exercise: given the entry CC(C)(C)[C@H](NC(=O)c1ccc2ccccc2n1)C(=O)N1CCC[C@@H]1C(=O)N[C@H](/C=C/S(C)(=O)=O)CC(=O)O [Compound 6] , state whether its pIC50 is greater than or equal to 6.
### Response 0

### Prompt Textbook exercise: given the entry CCOC(=O)/C=C/[C@@H](N)CC(=O)O [Compound 44, Asp ethyl vinyl ester tosyl salt] , state whether its pIC50 is greater than or equal to 6.
### Response 0

### Prompt Textbook exercise: given the entry CS(=O)(=O)/C=C/[C@H](CC(=O)O)NC(=O)[C@H](CCC(=O)O)NC(=O)c1ccc2ccccc2n1 [Compound 18] , state whether its pIC50 is greater than or equal to 6.
### Response 0

### Prompt Textbook exercise: given the entry CS(=O)(=O)/C=C/[C@H](CC(=O)O)NC(=O)[C@H]1CCC(=O)N1 [Compound 24] , state whether its pIC50 is greater than or equal to 6.
### Response 0

### Prompt Textbook exercise: given the entry CCC(C)[C@H](NC(=O)[C@H](CCC(=O)O)NC(=O)[C@@H](NC(=O)OCc1ccccc1)C(C)C)C(=O)N[C@H](/C=C/S(C)(=O)=O)CC(=O)O (stereo partly drawn) [Compound 38, Z-Val-Glu-Ile-Asp-methyl vinyl sulfone] , state whether its pIC50 is greater than or equal to 6.
### Response 1

### Prompt Textbook exercise: given the entry CC(C)(C)[C@H](NC(=O)c1ccc2ncccc2n1)C(=O)N1CCCC1C(=O)N[C@H](/C=C/S(C)(=O)=O)CC(=O)O (stereo in doubt) [Compound 8] , state whether its pIC50 is greater than or equal to 6.
### Response 1
